# TGI annotations
- Test system: UACC-62 melanoma
- Assay Notes: NCI tumour cell line growth inhibition, 48 h
Quick reminder: number only, in µM, skip the unit.

* CCCCN(CCCC)CC(O)c1ccc(OCc2ccccc2)c2ccccc12 (stereo not given) | 11.2
* [N-]=[N+]=NC1=CC(=O)c2cccc3cccc1c23 | 42.1
* O=[N+]([O-])c1cc([N+](=O)[O-])c(N2CCCC2)cc1NN=C(c1ccc(O)cc1)c1ccc(O)cc1 | 19

Query block: Entry COC(=O)c1c2c(c(C)[n+]([O-])c1C)C(=O)C(NCc1cccc(Cl)c1)=CC2=O has what TGI?
Result block: 2.84

Query block: Entry COC(=O)[C@@H]1CCCN1C(=O)[C@@H]1CCCN1C(=O)[C@H](Cc1ccccc1)NC(=S)Nc1cc(C(F)(F)F)cc(C(F)(F)F)c1 has what TGI?
Result block: 63.5

Query block: Entry CCCCC/C=C/C(=O)CCc1ccc(O)c(OC)c1 has what TGI?
Result block: 27.7

----------
- Test system: HOP-92 NSCLC
- Assay Notes: NCI tumour cell line growth inhibition, 48 h; in the data active = GI50 below about 0.43 µM; inactive = the rest
The reply should be one of these categories: active, inactive

Study these solved cases before continuing.
- CCCCSSC(=S)N(CC)CC: inactive
- CSc1nn2c(-c3ccc4ccccc4c3)ccnc2c1C#N: inactive
- CCN(CCCNC(=O)Cc1cc(=O)oc2cc(N(C)C)ccc12)CCNc1ccnc2cc(Cl)ccc12: inactive
- CN1CCN(Cc2ccc(NC(=O)c3cnc(F)c(C#Cc4cnc(N)c5ncccc45)c3)cc2C(F)(F)F)CC1: active
- C=CCOC1=CC(=O)c2ccccc2C1=O: inactive

As a next step, examine the molecule that follows.
Query block: GET /call?item= Nc1nc2cc(-c3ccc4ncc(C(=O)N5CCOCC5)n4c3)ccc2o1 returns the recorded outcome of this test.
Result block: inactive

----------
- System: HT29 colon
- Assay Notes: NCI tumour cell line growth inhibition, 48 h; in the data active = GI50 below about 0.43 µM; inactive = the rest
The reply should be one of these categories: 1 = active, 0 = inactive

Study these solved cases before continuing.
• CN1CCN(Cc2ccc(NC(=O)c3cnc(F)c(C#Cc4cnc(N)c5ncccc45)c3)cc2C(F)(F)F)CC1 = 1
• O=C(Nc1cccc(-n2cc(-c3ccncc3)c(-c3ccc(Cl)c(O)c3)n2)c1)Nc1cccc(C(F)(F)F)c1 = 0
• CC[C@@]1(O)C(=O)OCc2c1cc1n(c2=O)Cc2cc3c([N+](=O)[O-])c(OC)ccc3nc2-1 = 1

Query block: GET /call?item= CCC(/C=C(C)/C=C/C(=O)c1c(O)c(-c2ccc(O)cc2)c[nH]c1=O)CO (centres undefined) returns the recorded outcome of this test.
Result block: 0

Query block: GET /call?item= O=c1ccc(N=Nc2ccccc2)ccc1Cl returns the recorded outcome of this test.
Result block: 0

Query block: GET /call?item= c1cc(N2CCN(c3ccc(C4=NCCN4)cc3)CC2)ccc1C1=NCCN1 returns the recorded outcome of this test.
Result block: 0

Query block: GET /call?item= C=C1C(=O)O[C@H]2[C@H]1CC/C(COC(=O)NCc1ccc(Cn3c(=O)sn(CCI)c3=O)cc1)=C\CC[C@@]1(C)O[C@@H]21 returns the recorded outcome of this test.
Result block: 0

Query block: GET /call?item= CN(CCO)C1CCN(c2ccc(Nc3ncc4c5ccnc(F)c5n(C5CCCC5)c4n3)nc2)CC1 returns the recorded outcome of this test.
Result block: 0

Query block: GET /call?item= Cc1ccc2c(NCCCN(C)C)c3c(C)nn(C)c3nc2c1 returns the recorded outcome of this test.
Result block: 0
